Molecular target: Drp1 (Homo sapiens (Human))
Sequence (O00429 whole entry): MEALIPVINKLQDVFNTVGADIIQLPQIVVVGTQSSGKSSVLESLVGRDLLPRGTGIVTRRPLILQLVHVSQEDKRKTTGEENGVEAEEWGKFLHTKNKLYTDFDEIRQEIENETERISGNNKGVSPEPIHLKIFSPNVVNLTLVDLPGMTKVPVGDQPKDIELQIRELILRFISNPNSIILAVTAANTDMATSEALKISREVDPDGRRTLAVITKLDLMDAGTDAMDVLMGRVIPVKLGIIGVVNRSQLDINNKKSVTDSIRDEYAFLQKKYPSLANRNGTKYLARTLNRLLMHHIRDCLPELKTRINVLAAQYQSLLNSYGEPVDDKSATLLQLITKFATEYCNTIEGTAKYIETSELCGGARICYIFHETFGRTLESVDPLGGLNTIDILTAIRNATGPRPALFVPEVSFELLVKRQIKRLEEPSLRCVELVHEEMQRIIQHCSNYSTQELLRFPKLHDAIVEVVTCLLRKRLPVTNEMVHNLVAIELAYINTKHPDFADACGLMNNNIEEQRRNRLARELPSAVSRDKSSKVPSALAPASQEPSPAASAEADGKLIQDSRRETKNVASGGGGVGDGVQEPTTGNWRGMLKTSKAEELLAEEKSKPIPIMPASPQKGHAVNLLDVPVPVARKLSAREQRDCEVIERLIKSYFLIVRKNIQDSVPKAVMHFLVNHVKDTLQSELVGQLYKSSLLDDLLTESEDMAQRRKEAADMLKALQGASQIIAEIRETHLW
Assay: Drp1 Activity Screen: colorimetric (malachite green) GTPase assay
Type: biochemical
Details: max % inhibition of Drp1 GTPase activity; 0.6 μM Drp1, 0.1 mg/mL liposomes, 1 mM GTP, 20 min at 37° C.
Each entry below carries its recorded max % inh.
assay-metric: max % inh (%)

O=C(Nc1ccc(CO)cc1)c1cc(Br)cn1Cc1csc(N2CCCCC2)n1 : 68
Cc1cc(C(=O)Nc2ccccc2)n(Cc2csc(N3CCCCC3)n2)c1 : 68
Cc1cc(C(=O)Nc2ccc(-c3ccc(C(=O)O)cc3)cc2)n(Cc2csc(N3CCCCC3)n2)c1 : 83
Cc1ccc(C(=O)Nc2ccccc2)n1Cc1csc(N2CCCCC2)n1 : 26
Cc1cc(C(=O)NCc2ccccc2)n(Cc2csc(N3CCCCC3)n2)c1 : 70
CC(=O)NS(=O)(=O)c1ccc(NC(=O)c2cc(C)cn2Cc2csc(N3CCCCC3)n2)cc1 : 71
Cc1cc(C(=O)Nc2ccc(I)cc2)n(Cc2csc(N3CCCCC3)n2)c1 : 34
